- test-method-notes: Fraction unbound in Wistar Han rat by equilibrium dialysis method
- Format: ADME
Known fraction unbound of a selection of compounds
Just the number, please, no unit after it.

Below, 4 compounds whose answers are already recorded.
compound: COc1ncc(C)cc1CC[C@](O)(CC(=O)O)C(=O)O
result-type: fraction unbound
number: 0.058
--
compound: CCOc1ncccc1CC[C@@](O)(CC(=O)O)C(=O)O
result-type: fraction unbound
number: 0.086
--
compound: CC(C)(C)c1ccc(CC[C@@](O)(CC(=O)O)C(=O)O)cc1
result-type: fraction unbound
number: 0.054
--
compound: COc1ncc(C)cc1CC[C@@](O)(CC(=O)O)C(=O)O
result-type: fraction unbound
number: 0.135

-- ask For CC(C)(C)c1ccc(CCC(O)(CC(=O)O)C(=O)O)cc1 (racemic) , write its fraction unbound.
-- reply 0.073
